Biological target: T1, human CD24 (human, UniProt P25063 27-59, heavily glycosylated, GPI-anchored (as described in the background))
T1 construct: whole, on cells; Target of all cell-based FACS assays; also called hCD24; Cluster of differentiation 24
T1 chain (looked up): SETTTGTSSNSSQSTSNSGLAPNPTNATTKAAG
Assay: FACS, A549 cells
Method: Sequences of some of antibodies from Table 1 were selected to generate and produce human IgG4 chimeric antibodies. […] The protocol for FACs analysis is described as follows: [0536] a. Digested cells using TrypLE™ Express Enzyme (IX); Centrifuged the harvested cells at 400 g for 5 min and discarding the supernatant. [0537] b. Washed the cells 2 times with cold FACS buffer by centrifuging at 400 g for 5 min and discarding the supernatant. [0538] c. […] Incubate at 40° C. for 1 h. [0539] d. […]
Reported values of EC50 for individual entries

binder: 71A4F12 (antibody, V domains shown, mouse monoclonal antibody) VH: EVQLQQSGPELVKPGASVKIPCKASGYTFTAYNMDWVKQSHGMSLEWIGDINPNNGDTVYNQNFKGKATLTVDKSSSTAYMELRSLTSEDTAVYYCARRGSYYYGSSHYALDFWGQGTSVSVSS VL: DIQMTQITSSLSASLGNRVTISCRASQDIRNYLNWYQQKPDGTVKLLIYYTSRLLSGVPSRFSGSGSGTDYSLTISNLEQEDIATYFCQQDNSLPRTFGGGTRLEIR
EC50, nM: 1.97
--
binder: 100F2E3 (antibody, V domains shown, mouse monoclonal antibody) VH: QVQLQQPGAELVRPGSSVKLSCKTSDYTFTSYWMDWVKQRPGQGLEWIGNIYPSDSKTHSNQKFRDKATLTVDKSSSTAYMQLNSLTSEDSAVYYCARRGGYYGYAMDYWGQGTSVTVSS VL: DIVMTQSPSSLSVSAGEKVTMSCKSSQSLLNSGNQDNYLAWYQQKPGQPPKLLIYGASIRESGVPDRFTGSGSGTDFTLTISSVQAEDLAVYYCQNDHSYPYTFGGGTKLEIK
EC50, nM: 6.58
--
binder: 81A1F8 (antibody, V domains shown, mouse monoclonal antibody) VH: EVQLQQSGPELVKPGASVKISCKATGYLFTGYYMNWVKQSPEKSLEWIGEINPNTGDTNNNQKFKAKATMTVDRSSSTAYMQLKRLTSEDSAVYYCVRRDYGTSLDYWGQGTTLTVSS VL: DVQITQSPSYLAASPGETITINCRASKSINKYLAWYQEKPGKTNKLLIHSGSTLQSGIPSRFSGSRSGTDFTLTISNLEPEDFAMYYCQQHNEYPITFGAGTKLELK
EC50, nM: 2.37
--
binder: 73H5-1G2 (antibody, V domains shown, mouse monoclonal antibody) VH: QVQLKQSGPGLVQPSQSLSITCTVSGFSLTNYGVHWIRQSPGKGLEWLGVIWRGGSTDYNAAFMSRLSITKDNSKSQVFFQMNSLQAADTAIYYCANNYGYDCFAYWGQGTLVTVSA VL: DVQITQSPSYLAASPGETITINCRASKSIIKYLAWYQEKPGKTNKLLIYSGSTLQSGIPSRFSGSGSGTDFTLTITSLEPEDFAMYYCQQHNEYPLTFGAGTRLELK
EC50, nM: 36
--
binder: SN3 (antibody, V domains shown) VH: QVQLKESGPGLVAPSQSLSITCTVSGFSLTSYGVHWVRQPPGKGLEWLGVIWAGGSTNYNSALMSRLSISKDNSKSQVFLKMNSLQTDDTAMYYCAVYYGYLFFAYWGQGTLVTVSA VL: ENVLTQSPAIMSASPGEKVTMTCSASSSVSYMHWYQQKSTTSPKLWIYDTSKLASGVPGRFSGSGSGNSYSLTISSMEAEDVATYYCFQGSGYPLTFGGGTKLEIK
EC50, nM: 3

Hello, the source for this data is patent US20240052052A1, in case you need it.
